In this section, each of the compounds is paired with its reported composite z-score.
# system-tested: Follistatin (Homo sapiens)
# assay-details: follistatin binders on small-molecule microarrays, primary screen, biochemical, small-molecule microarray, 635/667 nm fluorescence (AID 1132)
# condition-label: FST binding, 635 nm fluorescence, higher = more signal
# answer = number (no unit)

In the examples that follow, each entry is paired with its recorded composite z-score.
CO[C@H]1COC(=O)CC=C[C@H](C)[C@@H](OC)COC(=O)[C@@H](C)COC(=O)CC=C[C@@H]1C	1.5
O=C1CCCC=C1C(O)CCOC(c1ccccc1)(c1ccccc1)c1ccccc1 (configuration not stated)	0.0573
O=C1[C@H]2[C@H]3[C@H](O)[C@H](O)CC(=NOCc4ccccc4)[C@@H]3CC[C@H]2C(=O)N1Cc1ccc2c(c1)OCO2	1.23
CO[C@@H]1COC(=O)[C@H](CCSC)NC(=O)CC=C[C@@H](C)COC(=O)CCC[C@H]1C	1.44

Find the measured composite z-score of CCOC(=O)[C@H](CC(C)C)NC(=O)CCC1CC(OC(=O)NCCc2ccc(F)cc2)CC2(CCCC(COC(=O)NCC(c3ccccc3)c3ccccc3)O2)O1 (some centres not stated) with Follistatin (Homo sapiens) as test system.
0.678

Find the measured composite z-score of `COc1ccc(COC(=O)NN=C2C[C@@H](O)[C@@H](O)[C@@H]3[C@@H]4C(=O)N(C5CCCCC5)C(=O)[C@@H]4CC[C@H]23)cc1` with Follistatin (Homo sapiens) as test system.
-1.72

Find the measured composite z-score of `O=c1n(-c2ccccc2)c(=O)n2n1CC[C@@H]1C(=NOCc3ccccc3)[C@H]3O[C@H]3[C@@H](O)[C@@H]12` with Follistatin (Homo sapiens) as test system.
0.265

----------
In this section, each of the compounds is paired with its reported composite z-score.
# assay-details: binders of probe aFST on microarray, primary screen, stem cell growth factor project, biochemical, small-molecule microarray, fluorescence 635/667 (AID 1086);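 note: score merges 667 nm fluorescence with signal-to-noise of each printed compound spot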
# condition-label: higher = more signal
# answer = number (no unit)

In the examples that follow, each entry is paired with its recorded composite z-score.
C=CC1=C[C@H](O)[C@@H]2O[C@@H]2C12OCCCO2	-0.136
COc1ccc(O[C@@H]2[C@H](O)CO[C@H]2C=Cc2ccccc2)cc1	-0.367
C[C@H](ON=C1[C@H]2CCn3c(=O)n(-c4ccccc4)c(=O)n3[C@H]2[C@H](O)[C@@H]2O[C@H]12)c1cn([C@H](CO)Cc2ccccc2)nn1	0.138

Give the measured composite z-score for `COC(=O)CC=C[C@@H](C)[C@@H](C=NOC[C@@H](O)[C@H]1O[C@@H]2OC(C)(C)O[C@@H]2[C@H]1O)NS(=O)(=O)c1ccc(C)cc1`
0.155

----------
# assay-details: PSAC antagonists in infected red cells, primary screen, cell-based, P. falciparum Indochina, OD700, 18 h (AID 1157)
# condition-label: P. falciparum Indochina infected erythrocytes, osmotic lysis OD700, 18 h; higher = more signal, called active from +8 up or from −8 down
Outcome: class 1 for z-score of at least 0.1; class 0 for anything lower.

CCOC(=O)NN=C1C[C@@H](O)[C@@H](O)[C@@H]2[C@@H]3C(=O)N(C(C)(C)C)C(=O)[C@@H]3CC[C@H]12	class 1

Threshold query (z-score >= 0.1) on `C=COC[C@@H]1CN2[C@@H](CC[C@@H](C)[C@@H]2c2ccc(Br)cc2)C(=O)O1`
class 0

Threshold query (z-score >= 0.1) on `CCCNC(=O)OC[C@H]1O[C@H](CCON=Cc2ccc(C(=O)N3[C@H](c4ccc(C)cc4)[C@@H](C)CC[C@H]3C(=O)OC)cc2)C=C[C@@H]1Oc1ccc(OC)cc1`
class 1

Threshold query (z-score >= 0.1) on `COCOc1ccc(Br)cc1C(=O)[C@@H]1O[C@H]1c1cccc(OC)c1`
class 1

Threshold query (z-score >= 0.1) on `CC[C@@H](c1ccccc1)n1c(=O)n2n(c1=O)[C@H]1[C@H](O)[C@@H]3O[C@@H]3C(=O)[C@H]1CC2`
class 0

Threshold query (z-score >= 0.1) on `CC(C)=CCCC(C)=CCON=C1C[C@@H](O)[C@@H](O)[C@@H]2[C@@H]3C(=O)N(Cc4ccccc4)C(=O)[C@@H]3CC[C@H]12`
class 0

Threshold query (z-score >= 0.1) on CCOC(=O)[C@H](Cc1ccccc1)NC(=O)CCC1CC(OC(=O)NCCc2ccc(F)cc2)CC2(CCCC(COC(=O)NCCc3ccc(Cl)cc3)O2)O1 (some centres not stated)
class 1
